Ref: the supplement of paper PMC9732359

# procedure_text: protein stability index of a GFP-peptide fusion (yeast GPS) (PSI 1-4); higher = more stable; sorted into four equal gates, so the index is relative within each strain
# condition_set: ubr1∆
observable: protein stability index

# record_sequence, observable, result
data = [
    ("EDVDDEELDITPLFPID [IRR1]", "protein stability index", 2.95),
    ("PNNETSVLSSKPGSKPE [SIR3]", "protein stability index", 2.96),
    ("IAKTFTVDVSSPTENGV [RPL22A]", "protein stability index", 2.99),
    ("DQWLEEYKKHFPPNLEK [UBP6]", "protein stability index", 2.96),
    ("LDRRFEIFFKKDSLWQS [FAS1]", "protein stability index", 2.91),
]
